- STUDY_TARGET: UniProt:Q8IEX1
- Sequence (Q8IEX1 1-627): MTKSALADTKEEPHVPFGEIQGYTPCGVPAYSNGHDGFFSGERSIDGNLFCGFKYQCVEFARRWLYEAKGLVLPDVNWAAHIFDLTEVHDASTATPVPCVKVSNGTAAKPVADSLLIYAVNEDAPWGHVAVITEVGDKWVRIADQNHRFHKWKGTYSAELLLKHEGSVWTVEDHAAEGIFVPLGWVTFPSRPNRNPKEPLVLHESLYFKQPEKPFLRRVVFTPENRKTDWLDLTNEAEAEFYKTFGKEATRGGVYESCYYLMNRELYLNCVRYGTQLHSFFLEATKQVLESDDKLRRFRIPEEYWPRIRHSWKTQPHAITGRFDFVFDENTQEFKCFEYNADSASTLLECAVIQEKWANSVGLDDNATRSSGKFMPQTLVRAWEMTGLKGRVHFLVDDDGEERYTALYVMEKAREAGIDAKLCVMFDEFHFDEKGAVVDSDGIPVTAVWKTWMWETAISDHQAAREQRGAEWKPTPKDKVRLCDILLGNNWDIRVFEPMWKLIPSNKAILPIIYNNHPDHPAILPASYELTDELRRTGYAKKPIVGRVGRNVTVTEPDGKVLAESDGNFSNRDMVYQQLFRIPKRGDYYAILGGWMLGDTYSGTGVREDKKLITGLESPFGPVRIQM
- PROTOCOL_TEXT: biochemical
EXPERIMENTAL_ENDPOINT: TbTryS Activity ± 2σn-1 (%)

Some solved cases for reference:
COMPOUND	TbTryS Activity ± 2σn-1 (%)
CC(C)c1ccc(CNCCCCCCCCNCc2ccc(C(C)C)cc2)cc1	56.8 ± 5.6; 3 (1.43) %
O=C(C1=C(O)C(=O)N(c2nc3ccc(Cl)cc3s2)C1c1ccc(F)cc1)c1ccc2c(c1)OCCO2 (centres unmarked)	101.4 ± 8.2; 12%
Clc1ccc(CNCCCCCCCCNCc2ccc(Cl)cc2)cc1	69.7 ± 3.0; 4%
c1ccc(CNCCCCCCCCCCNCc2ccccc2)cc1	89.5 ± 3.6; 3%

Form entry - test system: UniProt:Q8IEX1; read-out: TbTryS Activity ± 2σn-1 (%); compound: Cc1ccc2c(c1)no[n+]2[O-]
92.7 ± 3.4; 3%

Data credit: paper PMC4829233
